# TARGET_OF_ASSAY: Bs-CspB F15A (Bacillus subtilis, UniProt P32081 1-67, F15A)
# ASSAY_NAME: tryptophan fluorescence quenching
READOUT_LABEL: pKd
By convention, pKd is the negative base-10 log of a molar concentration.

Form field pKd, entry TTTTTTT (ssDNA) [dT7] : 6.87

Ref: paper PMC1636342
